IC50 for assorted molecules
target: recombinant human Axl kinase (catalytic domain, amino acids 473-894) (Homo sapiens, UniProt P30530); construct: catalytic domain, amino acids 473-894; purchased Invitrogen Corporation, Carlsbad, Calif; test: Axl kinase activity assay (TR-FRET, fluorescein poly-GT substrate); assay type: biochemical; settings: 20 μM ATP, 93 ng/ml Axl kinase, 60 min; read-out: IC50 (Axl kinase activity)
Sequence (P30530 473-894): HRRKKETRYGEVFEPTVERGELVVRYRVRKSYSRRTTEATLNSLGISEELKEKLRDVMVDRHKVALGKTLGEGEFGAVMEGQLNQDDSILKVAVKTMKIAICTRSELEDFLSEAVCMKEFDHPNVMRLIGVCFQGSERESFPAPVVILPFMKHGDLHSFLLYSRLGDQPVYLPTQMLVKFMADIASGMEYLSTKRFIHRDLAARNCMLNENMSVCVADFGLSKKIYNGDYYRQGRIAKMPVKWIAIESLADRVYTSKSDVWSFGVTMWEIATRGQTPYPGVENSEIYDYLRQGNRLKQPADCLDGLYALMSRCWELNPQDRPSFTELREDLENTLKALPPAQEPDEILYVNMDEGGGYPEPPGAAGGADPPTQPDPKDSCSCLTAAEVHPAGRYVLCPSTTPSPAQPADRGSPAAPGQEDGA

[
  {
    "chemical string": "CN1CCN(Cc2ccc(Nc3ncc(Cl)c(Nc4ccc(F)cc4S(=O)(=O)N4CCOCC4)n3)cc2)CC1",
    "IC50 (nM)": 240
  },
  {
    "chemical string": "CN1CCN(Cc2ccc(Nc3nc(N)cc(-c4ccc(F)c(Cl)c4)n3)cc2)CC1",
    "IC50 (nM)": 57200
  },
  {
    "chemical string": "CN1CCN(Cc2ccc(Nc3ncc(Cl)c(-c4ccc(F)cc4S(=O)(=O)N(C)C)n3)cc2)CC1",
    "IC50 (nM)": 99
  },
  {
    "chemical string": "Cc1cnc(Nc2ccc(CN3CCN(C)CC3)cc2)nc1-c1ccc(F)cc1S(=O)(=O)N1CCCC1",
    "IC50 (nM)": 2930
  },
  {
    "chemical string": "Cc1ccc(-c2nc(Nc3ccc(CN4CCN(C)CC4)cc3)ncc2C)cc1C#N",
    "IC50 (nM)": 1830
  },
  {
    "chemical string": "CN1CCN(Cc2ccc(Nc3ncc(Cl)c(-c4ccc(F)cc4S(=O)(=O)N4CCCC4)n3)cc2)CC1",
    "IC50 (nM)": 119
  },
  {
    "chemical string": "CN1CCN(Cc2ccc(Nc3ncc(F)c(-c4ccc(F)cc4S(=O)(=O)N4CCCC4)n3)cc2)CC1",
    "IC50 (nM)": 1140
  },
  {
    "chemical string": "Cc1cnc(Nc2ccc(CN3CCN(C)CC3)cc2)nc1-c1ccc(C(C)(C)C#N)cc1",
    "IC50 (nM)": 289
  }
]

----------
log10 IC50 for assorted molecules
test system: PANC-1; assay: Cell viability assay (ATP-Lite), PANC-1; assay type: cell-based; conditions: Homo sapiens; PANC-1, 96 hours
experimental endpoint: log10 IC50 (log10 of the value in µM)

[
  {
    "molecule": "CN1CCN(Cc2ccc(Nc3ncc(Cl)c(Nc4ccccc4C(=O)NC4CC4)n3)cc2)CC1 [Compound 2]",
    "log10 IC50": -0.52
  },
  {
    "molecule": "Cc1cnc(Nc2ccc(CN3CCN(C)CC3)cc2)nc1-c1ccc(C(C)(C)C#N)cc1 [Compound 11]",
    "log10 IC50": 0.76
  },
  {
    "molecule": "Cc1cnc(Nc2ccc(N(C)C3CCN(C)CC3)cc2)nc1-c1ccc(F)c(Cl)c1 [Compound 12]",
    "log10 IC50": 1.04
  },
  {
    "molecule": "Cc1cnc(Nc2ccc(CN3CCN(C)CC3)cc2)nc1-c1cccc(Cl)c1 [Compound 13]",
    "log10 IC50": 0.88
  },
  {
    "molecule": "CN1CCN(Cc2ccc(Nc3ncc(Cl)c(Nc4ccccc4C(=O)N4CCCC4)n3)cc2)CC1 [Compound 6]",
    "log10 IC50": -1.02
  },
  {
    "molecule": "CN1CCN(Cc2ccc(Nc3ncc(Cl)c(Nc4ccccc4S(=O)(=O)N4CCCC4)n3)cc2)CC1 [Compound 1]",
    "log10 IC50": -1.47
  },
  {
    "molecule": "Cc1cnc(Nc2ccc(CN3CCN(C)CC3)cc2)nc1-c1ccc(F)c(Cl)c1 [Compound 14]",
    "log10 IC50": 0.89
  },
  {
    "molecule": "CN1CCN(Cc2ccc(Nc3ncc(Cl)c(Nc4ccccc4C(=O)N(C)C)n3)cc2)CC1 [Compound 7]",
    "log10 IC50": -0.85
  }
]
